- measurementTarget: Retinal dehydrogenase 2 (UniProt Q62148)
- Sequence (Q62148 whole entry): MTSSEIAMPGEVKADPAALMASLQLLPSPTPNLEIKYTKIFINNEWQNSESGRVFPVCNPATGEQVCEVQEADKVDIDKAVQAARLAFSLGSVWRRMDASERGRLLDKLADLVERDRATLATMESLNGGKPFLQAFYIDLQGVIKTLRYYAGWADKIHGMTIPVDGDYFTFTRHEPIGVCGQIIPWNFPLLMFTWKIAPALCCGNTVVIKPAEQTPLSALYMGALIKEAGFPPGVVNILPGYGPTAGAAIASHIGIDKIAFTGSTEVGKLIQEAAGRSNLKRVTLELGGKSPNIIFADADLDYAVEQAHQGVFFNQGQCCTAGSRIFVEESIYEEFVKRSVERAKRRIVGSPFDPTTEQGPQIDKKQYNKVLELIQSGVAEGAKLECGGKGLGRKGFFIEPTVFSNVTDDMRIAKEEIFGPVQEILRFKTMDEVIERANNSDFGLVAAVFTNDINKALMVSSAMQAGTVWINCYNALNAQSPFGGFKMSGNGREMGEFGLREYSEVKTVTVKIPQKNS
observationType: IC50

Request: For CCC1COCCN1C(=O)Nc1cc(C)c2c(c1)CCC(=O)N2 (racemic) [US12054475, Compound 193] , what is its reported IC50?
Response: > 10 µM
